- TESTED SYSTEM: T1, CTLA-4-hFc (immunogen A; hFc-labeled CTLA-4 extracellular domain protein) (human, UniProt P16410 36-161)
- T1 construct: range 36-161; Made in HEK293 cells, purified on protein A; also called CLTA-4-hFc; CTLA-4 protein; not shown: human IgG Fc fragment (hFc) of the pCpC vector
- T1 sequence (looked up): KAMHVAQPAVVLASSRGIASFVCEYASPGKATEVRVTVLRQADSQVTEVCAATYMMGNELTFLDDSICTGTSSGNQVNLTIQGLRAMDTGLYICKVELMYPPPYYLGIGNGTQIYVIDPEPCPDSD
- EXPERIMENT SUMMARY: blocking assay, CTLA-4 protein, competitor B7.2
QUANTITY MEASURED: % Block at 40 nM (%)

binder="97A8D1 fully human CTLA-4 antibody (human IgG1, kappa) (antibody, V domains shown, also called mAb49; mAb049) VH: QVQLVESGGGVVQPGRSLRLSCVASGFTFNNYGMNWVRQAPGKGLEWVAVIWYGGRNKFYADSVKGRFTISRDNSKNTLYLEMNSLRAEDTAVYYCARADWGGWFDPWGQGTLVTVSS VL: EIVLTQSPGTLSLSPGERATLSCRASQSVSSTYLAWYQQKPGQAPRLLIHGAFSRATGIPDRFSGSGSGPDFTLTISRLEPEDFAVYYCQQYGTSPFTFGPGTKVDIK" quantity_measured="% Block at 40 nM" quantity_unit=% numeric_readout=99.2

Source: patent US20210324080A1
